system: vimentin; test: vimentin expression in SK-HEP-1 cells (ELISA); format: cell-based, human; conditions: SK-HEP-1, 10 μM, 24 hours, control group 1.2 ± 0.01
Ends that are not written are not given here. PEG = not defined here
endpoint.name: Relative protein level (mean ± SD, P), vimentin

Example substances with recorded Relative protein level (mean ± SD, P), vimentin:
# substance, reported.value
records = [
    ("N6: SEQ ID NO: 1 with deletion of four amino acids at the carboxyl terminal (positions 15-18) (YRVRFLAKENVTQD)", "0.81 ± 0.03, ****"),
    ("N1: polypeptide with the amino acid sequence set forth in SEQ ID NO: 1 (YRVRFLAKENVTQDAEDN)", "0.97 ± 0.03, ***"),
]

Fill in the blank: the reported Relative protein level (mean ± SD, P), vimentin of N3: SEQ ID NO: 1 with deletion of position 18 and PEG modification at the amino terminal ({PEG}-YRVRFLAKENVTQDAED; reading uncertain) is ____. 0.96 ± 0.05, **

====

tested on: human liver adenocarcinoma cells (SK-HEP-1); assay: transwell migration assay, SK-HEP-1 cells; format: cell-based; conditions: SK-HEP-1 transwell migration, 10 μM, 24 hours; control group 1 782 ± 108, control group 2 768 ± 86
Ends that are not written are not given here. PEG = not defined here
Kindly state Number of cells (mean ± SD, P), migrated cells for each of the entries shown.

# substance, reported.value
records = [
    ("N53: SEQ ID NO: 1 with A15R, one amino acid added at each terminal, PEG modification at the carboxyl terminal (FYRVRFLAKENVTQDREDNC-{PEG}; reading uncertain)", "265 ± 32,****"),
    ("N48: SEQ ID NO: 1 with A7R, deletion of position 11 and position 18, PEG modification at the carboxyl terminal (YRVRFLRKENTQDAED-{PEG}; reading uncertain)", "374 ± 22,***"),
    ("N47: SEQ ID NO: 1 with N18R, deletion of positions 1-2, one amino acid added and PEG at the carboxyl terminal (VRFLAKENVTQDAEDRC-{PEG}; reading uncertain)", "179 ± 17,****"),
    ("N12: SEQ ID NO: 1 with deletion of position 18 and positions 1-2 (VRFLAKENVTQDAED)", "405 ± 49,**"),
    ("N16: SEQ ID NO: 1 with substitution A7R and addition of one amino acid at the carboxyl terminus (YRVRFLRKENVTQDAEDNC)", "74 ± 18,****"),
]

Please report Number of cells (mean ± SD, P), migrated cells for every entry that follows.
1. N10: SEQ ID NO: 1 with deletion of positions 15-18 and 1-3 and PEG modification at the carboxyl terminal (RFLAKENVTQD-{PEG}; reading uncertain)
2. N41: SEQ ID NO: 1 with addition of two amino acids at the amino terminal, deletion of position 18, PEG at the carboxyl terminal (FRYRVRFLAKENVTQDAED-{PEG}; reading uncertain)
3. N42: SEQ ID NO: 1 with deletion of positions 1-5 and 15-18, PEG at the amino terminal, one amino acid added at the carboxyl terminal ({PEG}-LAKENVTQDR; reading uncertain)
4. N15: SEQ ID NO: 1 with substitution N18R and addition of one amino acid to the carboxyl terminal (YRVRFLAKENVTQDAEDRC)
5. N2: SEQ ID NO: 1 with deletion of one amino acid (position 18) at the carboxyl terminal (YRVRFLAKENVTQDAED)

54 ± 5,****
280 ± 24,****
106 ± 17,****
131 ± 10,****
104 ± 10,****

====

system: human liver adenocarcinoma cells (SK-HEP-1); assay: transwell migration assay, SK-HEP-1 cells; type: cell-based; conditions: SK-HEP-1 transwell migration, 10 μM, 24 hours; control group 1 782 ± 108, control group 2 768 ± 86
Ends that are not written are not given here. PEG = not defined here
Task for the reader: assign each of the following substances its reported Number of cells (mean ± SD, P), migrated cells.

In the examples that follow, each entry is paired with its recorded Number of cells (mean ± SD, P), migrated cells.
# substance, reported.value
measured = [
    ("N7: SEQ ID NO: 1 with addition of one amino acid at the carboxyl terminal and substitution A15R (YRVRFLAKENVTQDREDNC)", "127 ± 16,****"),
    ("N31: SEQ ID NO: 1 with deletion of positions 3, 4, 11 and 15-18 and PEG modification at the carboxyl terminal (YRFLAKENTQD-{PEG}; reading uncertain)", "90 ± 6,****"),
    ("N11: SEQ ID NO: 1 with deletion of positions 15-18 and 1-3 and PEG modification at the amino terminal ({PEG}-RFLAKENVTQD; reading uncertain)", "80 ± 6,****"),
]

Batch lookup, Number of cells (mean ± SD, P), migrated cells per entry.
1. N26: SEQ ID NO: 1 with substitution A15R, addition of one amino acid at the amino terminal and one at the carboxyl terminal (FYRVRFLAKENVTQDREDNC)
2. N45: SEQ ID NO: 1 with V11R, deletion of positions 1-5 and 15-18, PEG modification at the carboxyl terminal (LAKENRTQD-{PEG}; reading uncertain)
3. N22: SEQ ID NO: 1 with substitution A7R, deletion of three amino acids at the amino terminal and of positions 15-18 (RFLRKENVTQD)
4. N33: SEQ ID NO: 1 with deletion of positions 1-5, addition of one amino acid and PEG modification at the carboxyl terminal (LAKENVTQDAEDNC-{PEG}; reading uncertain)

1: 68 ± 19,****; 2: 162 ± 15,****; 3: 42 ± 17,****; 4: 354 ± 31,***

====

tested on: human pancreatic cancer cells (PANC-1); assay: transwell invasion assay, PANC-1 cells; format: cell-based; details: PANC-1 transwell invasion, 10 μM, 24 hours; control group 727 ± 68
Ends that are not written are not given here. PEG = not defined here
endpoint.name: Number of cells (mean ± SD, P), invaded cells

# substance, reported.value
data = [
    ("N4: SEQ ID NO: 1 with deletion of positions 15-18 and positions 1-3 (RFLAKENVTQD)", "37 ± 4,****"),
    ("N53: SEQ ID NO: 1 with A15R, one amino acid added at each terminal, PEG modification at the carboxyl terminal (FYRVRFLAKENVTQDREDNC-{PEG}; reading uncertain)", "228 ± 25,****"),
    ("N51: SEQ ID NO: 1 with A15R, one amino acid added at each terminal, PEG modification at the amino terminal ({PEG}-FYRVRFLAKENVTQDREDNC; reading uncertain)", "282 ± 28,****"),
    ("N32: SEQ ID NO: 1 with deletion of positions 1-3, addition of one amino acid and PEG modification at the carboxyl terminal (RFLAKENVTQDAEDNC-{PEG}; reading uncertain)", "251 ± 10,****"),
    ("N33: SEQ ID NO: 1 with deletion of positions 1-5, addition of one amino acid and PEG modification at the carboxyl terminal (LAKENVTQDAEDNC-{PEG}; reading uncertain)", "345 ± 27,***"),
]

Give one value of Number of cells (mean ± SD, P), invaded cells per listed substance.
1. N28: SEQ ID NO: 1 with deletion of positions 1-2 and 18 and PEG modification at the amino terminal ({PEG}-VRFLAKENVTQDAED; reading uncertain)
2. N41: SEQ ID NO: 1 with addition of two amino acids at the amino terminal, deletion of position 18, PEG at the carboxyl terminal (FRYRVRFLAKENVTQDAED-{PEG}; reading uncertain)
3. N31: SEQ ID NO: 1 with deletion of positions 3, 4, 11 and 15-18 and PEG modification at the carboxyl terminal (YRFLAKENTQD-{PEG}; reading uncertain)
4. N20: SEQ ID NO: 1 with addition of one amino acid at the amino terminal and deletion of position 18 (RYRVRFLAKENVTQDAED)
5. N2: SEQ ID NO: 1 with deletion of one amino acid (position 18) at the carboxyl terminal (YRVRFLAKENVTQDAED)
6. N52: SEQ ID NO: 1 with N18R, addition of two amino acids and PEG modification at the carboxyl terminal (YRVRFLAKENVTQDAEDRCT-{PEG}; reading uncertain)
7. N38: SEQ ID NO: 1 with one amino acid added at each terminal and PEG modification at the carboxyl terminal (FYRVRFLAKENVTQDAEDNC-{PEG}; reading uncertain)
8. N50: SEQ ID NO: 1 with N18R, addition of 2 amino acid at the carboxyl terminal, PEG modification at the amino terminal ({PEG}-YRVRFLAKENVTQDAEDRCT; reading uncertain)

1. 247 ± 15,****
2. 288 ± 38,****
3. 365 ± 57,***
4. 273 ± 12,****
5. 93 ± 19,****
6. 237 ± 27,****
7. 2.62 ± 21,****
8. 310 ± 30,***

Could you tell me Number of cells (mean ± SD, P), invaded cells for each of these substances? They are listed below.
1. N19: SEQ ID NO: 1 with deletion of positions 1-5 and 15-18 and addition of two amino acids at the carboxyl terminal (LAKENVTQDRC)
2. N42: SEQ ID NO: 1 with deletion of positions 1-5 and 15-18, PEG at the amino terminal, one amino acid added at the carboxyl terminal ({PEG}-LAKENVTQDR; reading uncertain)
3. N21: SEQ ID NO: 1 with deletion of positions 1-5 and 15-18 and addition of one amino acid at the amino terminal (SLAKENVTQD)
4. N49: SEQ ID NO: 1 with A7R, deletion of positions 1-2 and position 18, PEG modification at the carboxyl terminal (VRFLRKENVTQDAED-{PEG}; reading uncertain)
5. N1: polypeptide with the amino acid sequence set forth in SEQ ID NO: 1 (YRVRFLAKENVTQDAEDN)
6. N22: SEQ ID NO: 1 with substitution A7R, deletion of three amino acids at the amino terminal and of positions 15-18 (RFLRKENVTQD)

1. 213 ± 20,****
2. 399 ± 21,***
3. 269 ± 28,****
4. 141 ± 7,****
5. 83 ± 26,****
6. 220 ± 65,****
